Hello, the source for this data is patent US10851073B2, in case you need it.

Experimental system: His tagged full-length PTPN1 protein (Homo sapiens, UniProt P18031)
Sequence (P18031 with tags, fused parts or gaps): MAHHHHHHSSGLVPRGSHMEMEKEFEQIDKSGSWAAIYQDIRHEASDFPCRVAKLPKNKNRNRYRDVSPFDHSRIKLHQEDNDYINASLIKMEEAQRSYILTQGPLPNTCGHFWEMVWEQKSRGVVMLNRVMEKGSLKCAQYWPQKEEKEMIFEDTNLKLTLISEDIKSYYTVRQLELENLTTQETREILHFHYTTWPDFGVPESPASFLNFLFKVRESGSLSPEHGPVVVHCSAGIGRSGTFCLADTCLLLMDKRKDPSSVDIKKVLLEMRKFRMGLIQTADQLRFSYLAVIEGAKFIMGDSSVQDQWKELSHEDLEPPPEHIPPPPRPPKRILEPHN
pIC50: −log10 of the molar value.
Result type: pIC50

> print(dat)
                                   compound        result
1  CC(C)CCCNC1CCc2cc(O)c(N3CC(=O)NS3(=O)=O)c(F)c2C1 (stereo not shown)  8.00 to 9.00
2  O=C1CN(c2c(O)cc3c(c2F)CC(NCCC2(C(F)(F)F)CC2)CC3)S(=O)(=O)N1 (stereo not shown)  8.00 to 9.00
3  COCCOC1CCc2cc(O)c(N3CC(=O)NS3(=O)=O)c(F)c2C1 (stereo not shown)  7.00 to 8.00
4  O=C1CN(c2c(O)cc3c(c2F)CC(NCC[C@H]2C[C@@H](OC(F)(F)F)C2)CC3)S(=O)(=O)N1 (stereo partly shown)  8.00 to 9.00
5  CC(C)CCNC[C@@H]1Cc2cc(O)c(N3CC(=O)NS3(=O)=O)c(F)c2C1 (single isomer, unassigned)  8.00 to 9.00
6  O=C1CN(c2c(O)cc3c(c2F)CN(C[C@H]2C[C@@H]2c2ccncc2)CC3)S(=O)(=O)N1 (racemic)  7.00 to 8.00

**Q:** Which measured pIC50 value corresponds to CC(C)OCCNC1CCc2cc(O)c(N3CC(=O)NS3(=O)=O)c(F)c2C1 (stereo not shown) ?
**A:** 7.00 to 8.00
